Molecular target: PDE10A enzyme (Homo sapiens, UniProt Q9Y233)
Construct: made in house; host or cells: E. coli BL21(DE3)
Sequence (Q9Y233 716-1055): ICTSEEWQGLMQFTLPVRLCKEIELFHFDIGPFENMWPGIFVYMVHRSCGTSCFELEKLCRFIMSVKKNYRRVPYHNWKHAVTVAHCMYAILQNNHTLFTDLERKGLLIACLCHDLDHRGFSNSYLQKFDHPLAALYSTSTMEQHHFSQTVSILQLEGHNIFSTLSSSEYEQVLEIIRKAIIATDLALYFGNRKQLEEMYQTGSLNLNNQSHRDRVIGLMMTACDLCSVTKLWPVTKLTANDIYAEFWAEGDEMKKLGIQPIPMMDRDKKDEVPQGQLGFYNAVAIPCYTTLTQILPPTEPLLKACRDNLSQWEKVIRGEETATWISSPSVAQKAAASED
Assay: PDE10A inhibition assay, SPA
Format: biochemical
Settings: column head 2,1334003; unit inferred, nM
I'd appreciate it if you marked entries TRUE when IC50 is lower than 1000 nM and FALSE when it is not.

COc1cc2c(N3CCNC(c4cc(OC)c(OC)c(OC)c4)C3)nc(C)c(C#N)c2cc1OC (stereo not drawn) = FALSE
COc1cc2c(C#N)cnc(N3CCNC(c4cc(C)c(OC)c(C)c4)C3)c2cc1OC (stereo not drawn) = FALSE
COc1cc(C)c(C2CN(c3ncc(C#N)c4cc(OC)c(OC)cc34)CCN2)c(C)c1 (stereo not drawn) = FALSE
COc1cc2c(C#N)cnc(N3CCNC(c4ccc(OC)c(C(F)(F)F)c4)C3)c2cc1OC (stereo not drawn) = TRUE
COc1cc2c(C#N)cnc(N3CCNC(c4ccc(N(C)C)cc4)C3)c2cc1OC (stereo not drawn) = TRUE
COc1cc2c(C#N)cnc(N3CCNC(c4cccc([N+](=O)[O-])c4)C3)c2cc1OC (stereo not drawn) = TRUE
COc1cc2c(N3CCNC(c4ccc(N5CCOCC5)cc4)C3)nc(C)c(C#N)c2cc1OC (stereo not drawn) = FALSE
COc1cc2c(N3CCNC(c4cccc5ccccc45)C3)nc(C)c(C#N)c2cc1OC (stereo not drawn) = TRUE
COc1cc2c(N3CCNC(c4ccccc4OC)C3)nc(C)c(C#N)c2cc1OC (stereo not drawn) = FALSE
COc1cc2c(C#N)cnc(N3CCOC(c4ccccc4Cl)C3)c2cc1OC (stereo not drawn) = TRUE
COc1cc2c(N3CCNC(c4ccc(Br)cc4)C3)nc(C)c(C#N)c2cc1OC (stereo not drawn) = FALSE
COc1cc2c(C#N)cnc(N3CCNC(c4ccc(F)cc4)C3)c2cc1OC (stereo not drawn) = TRUE
COc1cc2c(C#N)cnc(N3CCN[C@H](c4ccccc4)C3)c2cc1OC = TRUE
COc1cc2c(C#N)cnc(N3CCNC(c4ccc(Br)cc4)C3)c2cc1OC (stereo not drawn) = TRUE
COc1cc2c(C#N)cnc(N3CCOC(c4ccc(Cl)cc4)C3)c2cc1OC (stereo not drawn) = TRUE
COc1cc2c(C#N)cnc(N3CCOC(c4ccc(C(F)(F)F)cc4)C3)c2cc1OC (stereo not drawn) = FALSE
COc1ccc(C2CN(c3ncc(C#N)c4cc(OC)c(OC)cc34)CCO2)cc1 (stereo not drawn) = TRUE
COc1cc2c(N3CCNC(c4ccc5c(c4)OCO5)C3)nc(C)c(C#N)c2cc1OC (stereo not drawn) = TRUE
COc1cccc(C2CN(c3nc(C)c(C#N)c4cc(OC)c(OC)cc34)CCN2)c1 (stereo not drawn) = TRUE
COc1cccc(C2CN(c3ncc(C#N)c4cc(OC)c(OC)cc34)CCN2)c1 (single isomer, unassigned; (-)) [Compound 24] = TRUE
COc1cc2c(C#N)cnc(N3CCNC(c4ccc(OCC(C)C)cc4)C3)c2cc1OC (stereo not drawn) = FALSE
COc1ccc(OC)c(C2CN(c3ncc(C#N)c4cc(OC)c(OC)cc34)CCN2)c1 (stereo not drawn) = TRUE
CCOc1ccc(C2CN(c3ncc(C#N)c4cc(OC)c(OC)cc34)CCN2)cc1 (stereo not drawn) = TRUE
COc1cc2c(N3CCNC(c4cccc([N+](=O)[O-])c4)C3)nc(C)c(C#N)c2cc1OC (stereo not drawn) = FALSE
COc1cc2c(C#N)cnc(N3CCNC(c4ccc(OC(F)(F)F)cc4)C3)c2cc1OC (stereo not drawn) = FALSE
CCc1ccc(C2CN(c3ncc(C#N)c4cc(OC)c(OC)cc34)CCN2)cc1 (stereo not drawn) = FALSE
COc1ccc(C2CN(c3ncc(C#N)c4cc(OC)c(OC)cc34)CCN2)cc1NC(C)=O (stereo not drawn) = TRUE
CCOc1ccc(C2CN(c3ncc(C#N)c4cc(OC)c(OC)cc34)CCN2)cc1C (stereo not drawn) = TRUE
COc1cc2c(C#N)cnc(N3CCNC(c4ccc5c(c4)OCO5)C3)c2cc1OC (stereo not drawn) = TRUE
COc1cc2c(C#N)cnc(N3CCSC(c4ccccc4)C3)c2cc1OC (stereo not drawn) = FALSE
COc1cc2c(N3CCNC(c4ccc(N(C)C)cc4)C3)nc(C)c(C#N)c2cc1OC (stereo not drawn) = FALSE
